# Test system: HepG2
# PROCEDURE_TEXT: Cytotoxicity against human HepG2 cells assessed as cell viability measured after 48 hrs by MTT assay
# Format: toxicity, cell-based
# EXPERIMENTAL_SETUP: hepg2
PROPERTY_MEASURED: log10(IC50) (log10 of the value in µM)
Note: values are log10 of IC50 expressed in µM.

- CHEMICAL_STRUCTURE: "CCC1=C(C)/C(=C/NC2CCCCCCC2)N=C1c1ccc(C)[nH]1"
  PROPERTY_MEASURED: "log10(IC50)"
  READOUT_NUMBER: 0.55
- CHEMICAL_STRUCTURE: "CCC1=C(CC)/C(=C/NC23C[C@H]4C[C@@H](C2)C[C@@H](C3)C4)N=C1c1ccc(Cc2ccc(OC)cc2)[nH]1"
  PROPERTY_MEASURED: "log10(IC50)"
  READOUT_NUMBER: 0.21

(Q) Identify measured log10(IC50) associated with "CCC1=C(CC)/C(=C/NC2CCCCCC2)N=C1c1ccc(C)[nH]1"
(A) 0.62

(Q) Please supply the value of reported log10(IC50) for the item "CCC1=C(CC)/C(=C/NC23C[C@H]4C[C@@H](C2)C[C@@H](C3)C4)N=C1c1ccc(-c2ccc(OC)cc2)[nH]1"
(A) 0.00

(Q) Given the compound "COC1=C(OC)/C(=C/NC2CCCCC2)N=C1c1ccc[nH]1" , write its reported log10(IC50).
(A) 1.62

(Q) Provide measured log10(IC50) value, entry: "CCC1=C(CC)/C(=C/NC2CCCCCC2)N=C1c1ccc(-c2ccccc2)[nH]1"
(A) 0.75

(Q) Identify measured log10(IC50) corresponding to "C(/NC1CCCCC1)=C1/N=C(c2ccc[nH]2)C2=C1OCCO2"
(A) 0.96

(Q) Hello, please tell me recorded log10(IC50) for this one: "CCC1=C(CC)/C(=C/NC2CCCCC2)N=C1c1ccc(-c2ccccc2)[nH]1"
(A) 0.67

(Q) Return reported log10(IC50). Input compound: "CCc1ccc(C2=N/C(=C\NC3CCCCCC3)C3=C2OCCO3)[nH]1"
(A) 0.25

###

Entries and their pIC50 values follow.
# System: HepG2
# PROCEDURE_TEXT: Cytotoxicity against human HepG2 cells assessed as cell viability measured after 48 hrs by MTT assay
# Type: toxicity, cell-based
# EXPERIMENTAL_SETUP: hepg2
Please note pIC50 is a logarithmic value: minus log10 of concentration in mol/L. Answer with that number alone.

A selection of reference data follows.
- CHEMICAL_STRUCTURE: "CCC1=C(CC)/C(=C/NC23C[C@H]4C[C@@H](C2)C[C@@H](C3)C4)N=C1c1cc2cc(OC)ccc2[nH]1"
  READOUT_NUMBER: 5.28
- CHEMICAL_STRUCTURE: "CCC1=C(C)/C(=C/NC2CCCCCC2)N=C1c1ccc(C)[nH]1"
  READOUT_NUMBER: 5.21
- CHEMICAL_STRUCTURE: "CCC1=C(CC)/C(=C/NC23C[C@H]4C[C@@H](C2)C[C@@H](C3)C4)N=C1c1cc2cc(Cl)ccc2[nH]1"
  READOUT_NUMBER: 5.30
- CHEMICAL_STRUCTURE: "CCc1ccc(C2=N/C(=C\\NC3CCCCCC3)C(OC)=C2OC)[nH]1"
  READOUT_NUMBER: 4.96
- CHEMICAL_STRUCTURE: "C(/NC12C[C@H]3C[C@@H](C1)C[C@@H](C2)C3)=C1/N=C(c2ccc[nH]2)C2=C1OCCO2"
  READOUT_NUMBER: 5.42
- CHEMICAL_STRUCTURE: "COc1ccc(Cc2ccc(C3=N/C(=C\\NC4CCCCC4)C4=C3OCCO4)[nH]2)cc1"
  READOUT_NUMBER: 5.81

(Q) Determine from records and report pIC50 for "CCC1=C(CC)/C(=C/NC23C[C@H]4C[C@@H](C2)C[C@@H](C3)C4)N=C1c1ccc(C)[nH]1"
(A) 5.61

(Q) Fill in pIC50 for record "COC(=O)[C@H]1CC[C@H](N/C=C2\N=C(c3ccc[nH]3)C3=C2CCCC3)CC1"
(A) 4.70

(Q) State its pIC50: "CCC1=C(CC)/C(=C/NC2CCCCCC2)N=C1c1ccc(-c2ccc(OC)cc2)[nH]1"
(A) 5.47

(Q) Tell me pIC50 reported for "CCC1=C(C)/C(=C/NC2CCCCC2)N=C1c1ccc(CC)[nH]1"
(A) 5.22

(Q) Please give the documented pIC50 of "CCC1=C(CC)/C(=C/NC2CCCCCCC2)N=C1c1ccc(-c2ccccc2)[nH]1"
(A) 5.05

(Q) Let me know recorded pIC50 for "CCC1=C(CC)/C(=C/NC2CCCCCCC2)N=C1c1ccc(CC)[nH]1" , thanks.
(A) 5.57
